Below are IC50 values for UniProtKB O00408 collected from several publications.
assayEndpoint: IC50 (µM)

CCc1ccc(-c2c(-c3nn(C)c4ncnc(N5CC(O)C5)c34)cnn2C)cc1 | 0.01

P: COc1ccc2nnc3c(C)nc(-c4ccc(F)cc4C)n3c2n1
Q: O=C(CCCOc1ccc2[nH]c3nc(O)nc-3cc2c1)NC12C[C@H]3C[C@@H](C1)C[C@@H](C2)C3
R: CC(C)Cn1c(=O)n(C)c(=O)c2cc3c(cc21)ncn3Cc1ccccc1
Enquiry: # sort list by recorded IC50, greatest to least Put the labels in the requested order and write them down.
Return: Q, R, P

====

Below are IC50 values for cGMP-dependent 3',5'-cyclic phosphodiesterase (Homo sapiens, UniProt O00408) collected from several publications.
assayEndpoint: IC50 (nM)

CN(C(=O)CCCCOc1ccc2nc3nc(O)n(C)c3cc2c1)C1CCCCCC1 | 10000
CCCCn1cnc2c(=O)[nH]c(Cc3ccc(OC)cc3)nc21 | 1940
COc1ccc(C2=Nc3c(C(C)(C)C)nn(CCO)c3C(=O)NC2)cc1-c1cnc(N2CCCCC2)nc1 | 2.5

1: CCCCCC[C@@H]([C@@H](C)O)n1cnc2c(N)ncnc21 (relative stereo)
2: COC(=O)CCCCOc1ccc2nc3nc(O)n(C)c3cc2c1
Enquiry: Of 1 and 2 , which shows the smaller IC50 value? Which one? Tell me its label.
Return: 1
(1: 800 nM, 2: 100000 nM)

====

Below are IC50 values for cGMP-dependent 3',5'-cyclic phosphodiesterase (Homo sapiens, UniProt O00408) collected from several publications.
assayEndpoint: IC50 (nM)

COC(=O)CCCOc1ccc2nc3[nH]c(=O)n(C)c3cc2c1 | 100000
Cc1nn2c(-c3c(C)nn(C)c3-c3ccc(C(F)(F)F)cc3)nc(C)c2c(=O)[nH]1 | 0.6
CCCCC(CC)Cn1cnc2c(=O)[nH]c(Cc3ccc(OC)cc3)nc21 (configuration not stated) | 81
CN(C(=O)CCCCOc1ccc2[nH]c3nc(O)nc-3cc2c1)C1CCCCC1 | 5000
COc1ccc2nnc3c(C)nc(-c4ccccc4Cl)n3c2n1 | 4.3

1: COc1ccc(C2=Nc3c(C(C)(C)C)nn(CCO)c3C(=O)NC2)cc1-c1cnc(N2CCOCC2)nc1
2: CCCCCCn1cnc2c(=O)[nH]c(Cc3ccccc3)nc21
3: O=c1n(Cc2ccc(Cl)cc2)c2sc3c(c2c2ncnn12)CCCC3
4: CCn1c(=O)c2c(c3ccc(C)nc31)O[C@@](C)(CCO)C[C@H]2C=C(C)C
Enquiry: Give the ascending ranking of the items by reported IC50. Put the labels in the requested order and write them down.
Return: 1, 4, 3, 2

====

Below are pIC50 values for cGMP-dependent 3',5'-cyclic phosphodiesterase (Homo sapiens) collected from several publications.
pIC50: −log10 of the molar value.

Below, 2 compounds whose answers are already recorded.
CN1CC(=O)N2[C@H](c3ccc4c(c3)OCO4)c3[nH]c4ccccc4c3C[C@@H]2C1=O | < 5.00
CCn1ncc(-c2nc3c(N[C@H]4CCN(C(=O)C5CCOCC5)C4)ncnc3n2C)c1C | < 4.70

Kindly consider the entry below.
Input `COc1ccc(CCn2cnc3c(=O)[nH]c(Cc4ccc(OCc5ccccc5)cc4)nc32)cc1OC` . Output pIC50: < 4.30
